Biological target: Muscarinic acetylcholine receptor M2 and M5 (Homo sapiens) (UniProt P08172+P08912)
Sequence (P08172 whole entry, looked up): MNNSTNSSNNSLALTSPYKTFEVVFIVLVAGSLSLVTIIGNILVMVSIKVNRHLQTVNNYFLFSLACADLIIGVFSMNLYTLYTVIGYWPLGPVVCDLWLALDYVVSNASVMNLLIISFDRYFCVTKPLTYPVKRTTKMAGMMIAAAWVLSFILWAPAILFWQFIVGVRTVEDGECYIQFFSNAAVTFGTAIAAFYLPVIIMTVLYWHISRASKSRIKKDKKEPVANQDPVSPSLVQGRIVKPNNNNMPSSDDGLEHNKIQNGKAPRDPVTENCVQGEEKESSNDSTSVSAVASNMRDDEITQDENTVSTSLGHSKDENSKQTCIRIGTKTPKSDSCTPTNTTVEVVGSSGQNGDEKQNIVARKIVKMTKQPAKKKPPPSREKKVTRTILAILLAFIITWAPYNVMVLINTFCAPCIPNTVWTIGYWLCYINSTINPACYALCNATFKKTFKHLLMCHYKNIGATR
Sequence (P08912 whole entry, looked up): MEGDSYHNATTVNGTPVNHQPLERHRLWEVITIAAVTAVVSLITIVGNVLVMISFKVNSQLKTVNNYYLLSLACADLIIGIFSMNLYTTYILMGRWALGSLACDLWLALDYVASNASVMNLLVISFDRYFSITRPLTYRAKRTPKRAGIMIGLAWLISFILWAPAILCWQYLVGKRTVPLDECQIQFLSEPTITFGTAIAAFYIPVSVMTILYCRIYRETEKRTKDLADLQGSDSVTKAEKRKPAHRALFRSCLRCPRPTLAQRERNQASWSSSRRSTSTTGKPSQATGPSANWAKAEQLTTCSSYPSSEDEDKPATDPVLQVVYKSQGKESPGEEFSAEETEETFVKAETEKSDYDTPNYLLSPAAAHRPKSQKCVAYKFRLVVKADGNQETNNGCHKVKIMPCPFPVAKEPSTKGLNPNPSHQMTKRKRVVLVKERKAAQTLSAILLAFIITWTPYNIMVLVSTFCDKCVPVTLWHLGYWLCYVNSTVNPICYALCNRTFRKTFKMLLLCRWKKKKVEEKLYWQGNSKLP
Assay: Selectivity ratio of Ki for displacement of [3H]-NMS from human muscarinic M5 receptor to Ki for displacement of [3H]-NMS from human muscarinic M2 receptor
Format: protein assay
measured quantity: Ratio Ki

Use the examples below as a reference point.
record smiles	reported measurement
CN(C)c1ccc2c(-c3ccc(C(=O)NCCN4CCN(CCCCC5CCN(CC(=O)N6c7ccccc7NC(=O)c7ccccc76)CC5)CC4)cc3C(=O)[O-])c3ccc(=[N+](C)C)cc-3oc2c1	741
CN(C)c1ccc2c(-c3ccc(C(=O)NCCNC(=O)CCc4cn(CCCCC5CCN(CC(=O)N6c7ccccc7NC(=O)c7ccccc76)CC5)cn4)cc3C(=O)[O-])c3ccc(=[N+](C)C)cc-3oc2c1	155

A. O=C(CCCCCNC(=O)COc1ccc(/C=C/C2=[N+]3C(=Cc4ccc(-c5cccs5)n4[B-]3(F)F)C=C2)cc1)NCCNC(=O)CCc1cn(CCCCC2CCN(CC(=O)N3c4ccccc4NC(=O)c4ccccc43)CC2)cn1
B. CC1(C)C(/C=C/C=C/C=C2/N(CCCCCC(=O)NCCNC(=O)CCc3cn(CCCCC4CCN(CC(=O)N5c6ccccc6NC(=O)c6ccccc65)CC4)cn3)c3cccc(S(=O)(=O)O)c3C2(C)C)=[N+](CCCCS(=O)(=O)[O-])c2ccccc21
(Q) Lower value for measured Ratio Ki? Options: A , B Respond using the label that marks the chosen record.
(A) A

I. Cc1cc(/C=C/c2cc3c4c(c2)CCCN4CCC3)cc(C)[n+]1CCN1CCN(CCCCC2CCN(CC(=O)N3c4ccccc4NC(=O)c4ccccc43)CC2)CC1
II. Cc1cc(/C=C/C=C/c2ccc(N(C)C)cc2)cc(C)[n+]1CCNC(=O)CCc1cn(CCCCC2CCN(CC(=O)N3c4ccccc4NC(=O)c4ccccc43)CC2)cn1
(Q) Please tell me which of the two, I or II , has the higher reported Ratio Ki value. Field: selected label. Fill in the label of the entry you choose.
(A) I

P. Cc1cc(/C=C/c2cc3c4c(c2)CCCN4CCC3)cc(C)[n+]1CCNC(=O)CCc1cn(CCCCC2CCN(CC(=O)N3c4ccccc4NC(=O)c4ccccc43)CC2)cn1
Q. Cc1cc(/C=C/C=C/c2ccc(N(C)C)cc2)cc(C)[n+]1CCN1CCN(CCCCC2CCN(CC(=O)N3c4ccccc4NC(=O)c4ccccc43)CC2)CC1
(Q) Hello, I am sorting some records. Could you say if P or Q has the smaller Ratio Ki value? Give the label under which the chosen entry appears.
(A) P
